The binders listed here are annotated with their Kd.
- target or test system: … (Plasmodium falciparum)
- assay protocol: SPR, antibody on chip
# output: bare number, implied unit µM

Example results:
binder="AB-007061 (antibody, V domains shown) VH: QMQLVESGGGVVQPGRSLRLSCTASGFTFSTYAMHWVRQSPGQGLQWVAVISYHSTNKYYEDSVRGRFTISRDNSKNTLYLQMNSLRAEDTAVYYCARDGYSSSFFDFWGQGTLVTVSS VL: DIQMTQSPSTLSASVGDRVAITCRASQSIDRWLAWYQQQPGKAPKLLMSGASVLESGVPSRFSGSGSGTEFTLTISSLQPDDFATYYCQHYNSYFVTFGQGTKVEIK" units_of_measure=µM observed_measurement=14.6
binder="AB-007044 (antibody, V domains shown) VH: QMQLVESGGGVVQPGRSLRLSCTASGFTFSTYAMHWVRQSPGQGLQWVAVISYHSTNKYYEESVRGRFTISRDNSKNTLYLQMNSLRAEDTAVYYCARDGYSSSFFDFWGQGTLVTVSS VL: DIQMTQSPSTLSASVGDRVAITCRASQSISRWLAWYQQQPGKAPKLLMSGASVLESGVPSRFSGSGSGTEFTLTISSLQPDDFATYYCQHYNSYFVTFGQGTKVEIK" units_of_measure=µM observed_measurement=12.7

Okay, now this binder:
Requested read-out: Kd. Entry: AB-007037 (antibody, V domains shown) VH: QMQLVESGGGVVQPGRSLRLSCTASGFTFSTYAMHWVRQSPGQGLQWVAVISYHSTNKYYEDSVKGRFTISRDNSKNTLYLQMNSLRAEDTAVYYCARDGYSSSFFDFWGQGTLVTVSS VL: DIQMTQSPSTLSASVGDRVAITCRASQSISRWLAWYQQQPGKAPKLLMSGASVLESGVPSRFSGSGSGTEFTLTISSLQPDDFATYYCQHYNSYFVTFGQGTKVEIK 2.24
